- Tested System: SMARCA2 (Homo sapiens)
- Measurement Notes: SMARCA2 degradation in SW1573 cells (Western blot)
- Type: cell-based
- Set-up: endogenous in cells; host or cells: SW1573
- Assay Context: 1 nM, 24 hours
Under this convention, 1 denotes Degradation rate of SMARCA2 in SW1573 cells (%) strictly below 60% and -1 denotes Degradation rate of SMARCA2 in SW1573 cells (%) at or above 60%.

Ask: Is 60% strictly greater than the compound's reported Degradation rate of SMARCA2 in SW1573 cells (%)? compound: Nc1nnc(-c2ccccc2O)cc1C#CC1CCC2(CC1)CC(N1CCC3(CC1)COc1c3ccc(F)c1C(=O)N[C@H]1CCC(=O)NC1=O)C2 (stereo partly drawn)
Result: 1

Ask: Is 60% strictly greater than the compound's reported Degradation rate of SMARCA2 in SW1573 cells (%)? compound: Nc1nnc(-c2ccccc2O)cc1C#CC1CCC2(CC1)CC(N1CCC3(CCc4cc(F)c(C(=O)N[C@H]5CCC(=O)NC5=O)cc4O3)CC1)C2 (stereo partly drawn)
Result: 1

Ask: Is 60% strictly greater than the compound's reported Degradation rate of SMARCA2 in SW1573 cells (%)? compound: Nc1nnc(-c2ccccc2O)cc1C#CC1CCC2(CC1)CC(N1CCC3(CC1)COc1cc(C(=O)N[C@H]4CCC(=O)NC4=O)c(F)cc13)C2 (stereo partly drawn)
Result: 1

Ask: Is 60% strictly greater than the compound's reported Degradation rate of SMARCA2 in SW1573 cells (%)? compound: Cn1c(=O)n(C2CCC(=O)NC2=O)c2cc3c(cc21)C1(CCN(C2CN(c4cc(-c5ccccc5O)nnc4N)C2)CC1)CO3 (stereo not drawn)
Result: 1

Ask: Is 60% strictly greater than the compound's reported Degradation rate of SMARCA2 in SW1573 cells (%)? compound: Cn1c(=O)n(C2CCC(=O)NC2=O)c2cc3c(cc21)C1(CCN(C[C@H]2CC[C@H](Cn4cc(-c5cc(-c6ccccc6O)nnc5N)cn4)CC2)CC1)CO3 (stereo partly drawn)
Result: -1

Ask: Is 60% strictly greater than the compound's reported Degradation rate of SMARCA2 in SW1573 cells (%)? compound: Cn1c(=O)n(C2CCC(=O)NC2=O)c2cc3c(cc21)C1(CCN(C[C@H]2CC[C@H](n4cc(-c5cc(-c6ccccc6O)nnc5N)cn4)CC2)CC1)CO3 (stereo partly drawn)
Result: -1

Ask: Is 60% strictly greater than the compound's reported Degradation rate of SMARCA2 in SW1573 cells (%)? compound: Nc1nnc(-c2ccccc2O)cc1C#CC1CCC2(CC1)CC(N1CCC3(CC1)COc1cc(NC4CCC(=O)NC4=O)ccc1C3)C2 (stereo not drawn)
Result: 1

Ask: Is 60% strictly greater than the compound's reported Degradation rate of SMARCA2 in SW1573 cells (%)? compound: Cn1c(=O)n(C2CCC(=O)NC2=O)c2ccc3c(c21)OCC31CCN(C2CC3(CCC(C#Cc4cc(-c5ccccc5O)nnc4N)CC3)C2)CC1 (stereo not drawn)
Result: -1

====

- Tested System: SMARCA2 (Homo sapiens, UniProt P51531)
- Sequence (P51531 whole entry): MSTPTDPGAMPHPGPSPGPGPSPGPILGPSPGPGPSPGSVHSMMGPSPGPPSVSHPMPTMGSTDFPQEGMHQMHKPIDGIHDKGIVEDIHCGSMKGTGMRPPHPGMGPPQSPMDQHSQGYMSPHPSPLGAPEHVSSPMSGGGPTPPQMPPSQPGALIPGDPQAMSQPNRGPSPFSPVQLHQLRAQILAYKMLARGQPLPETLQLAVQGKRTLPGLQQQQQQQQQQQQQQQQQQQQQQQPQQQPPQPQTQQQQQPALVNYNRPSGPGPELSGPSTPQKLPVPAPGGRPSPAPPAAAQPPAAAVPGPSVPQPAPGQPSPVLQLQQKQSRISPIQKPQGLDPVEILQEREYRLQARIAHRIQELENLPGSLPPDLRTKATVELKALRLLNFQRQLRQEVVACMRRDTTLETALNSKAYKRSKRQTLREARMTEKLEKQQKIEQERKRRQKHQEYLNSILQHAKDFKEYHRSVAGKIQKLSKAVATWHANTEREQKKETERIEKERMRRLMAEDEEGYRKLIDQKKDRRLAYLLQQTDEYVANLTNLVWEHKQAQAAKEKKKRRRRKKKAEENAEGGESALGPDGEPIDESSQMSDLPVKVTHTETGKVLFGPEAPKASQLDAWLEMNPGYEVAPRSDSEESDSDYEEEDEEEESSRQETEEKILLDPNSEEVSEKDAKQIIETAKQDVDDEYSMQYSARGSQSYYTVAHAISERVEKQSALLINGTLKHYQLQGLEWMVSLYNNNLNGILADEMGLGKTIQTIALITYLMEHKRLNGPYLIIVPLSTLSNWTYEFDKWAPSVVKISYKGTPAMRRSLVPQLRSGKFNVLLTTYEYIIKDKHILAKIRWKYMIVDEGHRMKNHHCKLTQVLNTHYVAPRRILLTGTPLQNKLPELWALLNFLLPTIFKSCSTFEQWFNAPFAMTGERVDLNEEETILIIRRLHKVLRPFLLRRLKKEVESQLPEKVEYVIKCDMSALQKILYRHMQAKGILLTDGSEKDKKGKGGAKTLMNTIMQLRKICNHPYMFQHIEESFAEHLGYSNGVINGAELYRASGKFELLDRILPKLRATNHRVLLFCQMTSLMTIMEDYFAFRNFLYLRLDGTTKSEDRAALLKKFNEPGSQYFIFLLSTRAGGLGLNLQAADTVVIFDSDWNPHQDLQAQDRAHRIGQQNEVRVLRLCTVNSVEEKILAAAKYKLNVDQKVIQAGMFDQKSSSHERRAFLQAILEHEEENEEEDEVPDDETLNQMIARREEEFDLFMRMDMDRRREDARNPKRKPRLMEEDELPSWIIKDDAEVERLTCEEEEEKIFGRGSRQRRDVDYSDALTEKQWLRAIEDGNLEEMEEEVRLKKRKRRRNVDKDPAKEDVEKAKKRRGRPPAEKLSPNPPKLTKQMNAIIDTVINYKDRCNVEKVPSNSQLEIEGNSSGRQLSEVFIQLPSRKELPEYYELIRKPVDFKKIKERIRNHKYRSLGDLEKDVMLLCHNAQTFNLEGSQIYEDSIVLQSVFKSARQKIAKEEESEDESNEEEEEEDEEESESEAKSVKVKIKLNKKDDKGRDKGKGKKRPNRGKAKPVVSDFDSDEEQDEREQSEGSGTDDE
- Measurement Notes: SMARCA2 degradation in HeLa cells (Western blot)
- Type: cell-based
- Set-up: endogenous in cells
- Assay Context: 1 nM, 4 hours
Reported Property: Degradation rate of SMARCA2 in HeLa cells (%)
Please reply with the bare figure in % and do not write the unit itself.

Data point: Cn1c(=O)n(C2CCC(=O)NC2=O)c2cc3c(cc21)C1(CCN(C(=O)[C@H]2CC[C@H](Cn4cc(-c5cc(-c6ccccc6O)nnc5N)cn4)CC2)CC1)CO3 (some centres unmarked) ; Degradation rate of SMARCA2 in HeLa cells (%) = 17

Data point: Cn1c(=O)n(C2CCC(=O)NC2=O)c2ccc3c(c21)OCC31CCN(C[C@H]2CC[C@H](Cn3cc(-c4cc(-c5ccccc5O)nnc4N)cn3)CC2)CC1 (some centres unmarked) ; Degradation rate of SMARCA2 in HeLa cells (%) = 100

Data point: COc1cc2c(cc1C(=O)N[C@H]1CCC(=O)NC1=O)C1(CCN(C3CC4(CCC(C#Cc5cc(-c6ccccc6O)nnc5N)CC4)C3)CC1)CO2 (some centres unmarked) ; Degradation rate of SMARCA2 in HeLa cells (%) = -7

Data point: Cn1c(=O)n(C2CCC(=O)NC2=O)c2cc3c(cc21)C1(CCN(C[C@H]2CC[C@H](Cn4cc(-c5cc(-c6ccccc6O)nnc5N)cn4)CC2)CC1)CO3 (some centres unmarked) ; Degradation rate of SMARCA2 in HeLa cells (%) = 99

Data point: Nc1nnc(-c2ccccc2O)cc1C#CC1CCC2(CC1)CC(N1CC3(CCc4cc(F)c(C(=O)N[C@H]5CCC(=O)NC5=O)cc4O3)C1)C2 (some centres unmarked) ; Degradation rate of SMARCA2 in HeLa cells (%) = 11

====

- Tested System: AR protein (Homo sapiens, UniProt P10275, T878A)
- Construct: host or cells: LNCaP FGC
- Sequence (P10275 whole entry T878A): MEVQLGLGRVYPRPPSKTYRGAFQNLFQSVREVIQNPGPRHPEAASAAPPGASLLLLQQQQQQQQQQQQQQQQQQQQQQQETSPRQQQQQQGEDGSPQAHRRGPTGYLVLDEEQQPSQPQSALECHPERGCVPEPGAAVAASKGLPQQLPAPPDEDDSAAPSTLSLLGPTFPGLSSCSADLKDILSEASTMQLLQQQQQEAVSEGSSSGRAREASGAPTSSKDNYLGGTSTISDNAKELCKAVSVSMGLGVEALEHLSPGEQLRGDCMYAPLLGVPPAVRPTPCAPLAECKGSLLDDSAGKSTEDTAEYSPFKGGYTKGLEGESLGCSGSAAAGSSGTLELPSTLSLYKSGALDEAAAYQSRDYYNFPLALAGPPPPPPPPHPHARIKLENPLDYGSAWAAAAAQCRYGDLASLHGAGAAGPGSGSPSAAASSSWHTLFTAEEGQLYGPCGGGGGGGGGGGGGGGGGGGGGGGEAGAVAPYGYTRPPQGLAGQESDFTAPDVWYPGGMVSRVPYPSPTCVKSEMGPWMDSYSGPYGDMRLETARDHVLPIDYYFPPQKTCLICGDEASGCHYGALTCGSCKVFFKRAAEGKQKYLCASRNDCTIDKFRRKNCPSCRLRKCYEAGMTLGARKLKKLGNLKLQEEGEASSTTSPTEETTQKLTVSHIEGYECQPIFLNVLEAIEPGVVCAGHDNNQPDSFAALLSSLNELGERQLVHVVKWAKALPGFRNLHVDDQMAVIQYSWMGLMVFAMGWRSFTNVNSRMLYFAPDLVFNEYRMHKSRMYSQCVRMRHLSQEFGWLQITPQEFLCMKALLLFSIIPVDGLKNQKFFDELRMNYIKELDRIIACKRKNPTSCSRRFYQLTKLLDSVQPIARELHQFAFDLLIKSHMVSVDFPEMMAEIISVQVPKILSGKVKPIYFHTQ
- Measurement Notes: AR protein degradation in LNCaP cells (Western blot)
- Assay type: cell-based
- Assay Context: 100 nM, 8 hours
Under this convention, 1 (yes) denotes percent AR protein degradation at a fixed concentration at 0.1 µM strictly below 30% and 0 (no) denotes percent AR protein degradation at a fixed concentration at 0.1 µM at or above 30%.

Ask: Is 30% strictly greater than the compound's reported percent AR protein degradation at a fixed concentration at 0.1 µM? compound: COc1cc(O[C@H]2C(C)(C)[C@H](NC(=O)c3ccc(N4CCC(CN5CCC6(CC5)COc5c6ccc6c5n(C)c(=O)n6C5CCC(=O)NC5=O)CC4)cc3)C2(C)C)ccc1C#N (stereo partly shown) [A-P-28]
Result: 0 (no)

Ask: Is 30% strictly greater than the compound's reported percent AR protein degradation at a fixed concentration at 0.1 µM? compound: N#Cc1cc2c(cc1Cl)OC1(CCN(C(=O)c3ccc(N4CCC(CN5CCC6(CCc7cc(C(=O)N[C@H]8CCC(=O)NC8=O)c(F)cc7O6)CC5)CC4)cc3)CC1)CO2 [A-P-53]
Result: 1 (yes)

Ask: Is 30% strictly greater than the compound's reported percent AR protein degradation at a fixed concentration at 0.1 µM? compound: COc1cc(O[C@H]2C(C)(C)[C@H](NC(=O)c3ccc(N4CCC(F)(CN5CCC6(CC5)COc5cc7c(cc56)n(C)c(=O)n7C5CCC(=O)NC5=O)CC4)cc3)C2(C)C)ccc1C#N (stereo partly shown) [A-P-13]
Result: 0 (no)

Ask: Is 30% strictly greater than the compound's reported percent AR protein degradation at a fixed concentration at 0.1 µM? compound: Cn1c(=O)n(C2CCC(=O)NC2=O)c2ccc3c(c21)OCC31CCN(CC2CCN(c3ccc(C(=O)N[C@H]4CC[C@H](Oc5ccc(C#N)c(Cl)c5)CC4)nn3)CC2)CC1 (stereo partly shown) [A-P-24]
Result: 1 (yes)

Ask: Is 30% strictly greater than the compound's reported percent AR protein degradation at a fixed concentration at 0.1 µM? compound: COc1cc2c(cc1C(=O)N[C@H]1CCC(=O)NC1=O)OCC21CCN(CC2CCN(c3ccc(N4CCC5(CC4)C[C@H](C)N(c4ccc(C#N)c(Cl)c4)C5)cc3)CC2)CC1 [A-P-80]
Result: 0 (no)

Ask: Is 30% strictly greater than the compound's reported percent AR protein degradation at a fixed concentration at 0.1 µM? compound: C[C@H]1CC2(CCN(c3ccc(N4CCC(CN5CCC6(CC5)COc5ccc7c(c56)n(C)c(=O)n7C5CCC(=O)NC5=O)CC4)cc3)CC2)CN1c1ccc(C#N)c(Cl)c1 (stereo partly shown) [A-P-26]
Result: 0 (no)

Ask: Is 30% strictly greater than the compound's reported percent AR protein degradation at a fixed concentration at 0.1 µM? compound: COc1cc(O[C@H]2CC[C@H](NC(=O)c3ccc(N4CCC(CN5CCC6(CC5)COc5c6ccc6c5n(C)c(=O)n6C5CCC(=O)NC5=O)CC4)nn3)CC2)ccc1C#N (stereo partly shown) [A-P-22]
Result: 1 (yes)

Ask: Is 30% strictly greater than the compound's reported percent AR protein degradation at a fixed concentration at 0.1 µM? compound: COc1cc2c(cc1C(=O)N[C@H]1CCC(=O)NC1=O)C1(CCN(CC3CCN(C(=O)c4ccc(N5CCC6(CC5)C[C@H](C)N(c5ccc(C#N)c(Cl)c5)C6)cc4)CC3)CC1)CO2 [A-P-82]
Result: 0 (no)

Ask: Is 30% strictly greater than the compound's reported percent AR protein degradation at a fixed concentration at 0.1 µM? compound: COc1cc(O[C@H]2CC[C@H](NC(=O)c3ccc(N4CCC(N5CCC6(CC5)COc5cc7c(cc56)n(C)c(=O)n7C5CCC(=O)NC5=O)CC4)nn3)CC2)ccc1C#N (stereo partly shown) [A-P-18]
Result: 1 (yes)

Ask: Is 30% strictly greater than the compound's reported percent AR protein degradation at a fixed concentration at 0.1 µM? compound: Cn1c(=O)n(C2CCC(=O)NC2=O)c2ccc3c(c21)OCC31CCN(C2CCN(c3ccc(C(=O)N[C@H]4CC[C@H](Oc5ccc(C#N)c(Cl)c5)CC4)nn3)CC2)CC1 (stereo partly shown) [A-P-23]
Result: 1 (yes)

Ask: Is 30% strictly greater than the compound's reported percent AR protein degradation at a fixed concentration at 0.1 µM? compound: Cn1c(=O)n(C2CCC(=O)NC2=O)c2ccc3c(c21)OCC31CCN(C2CC3(CCN(c4ccc(C(=O)N[C@H]5CC[C@H](Oc6ccc(C#N)c(Cl)c6)CC5)nn4)CC3)C2)CC1 (stereo partly shown) [A-P-25]
Result: 0 (no)

Ask: Is 30% strictly greater than the compound's reported percent AR protein degradation at a fixed concentration at 0.1 µM? compound: C[C@H]1CC2(CCN(c3ccc(N4CCC(CN5CCC6(CCc7cc(C(=O)N[C@H]8CCC(=O)NC8=O)c(F)cc7O6)CC5)CC4)cc3)CC2)CN1c1ccc(C#N)c(Cl)c1 [A-P-42]
Result: 0 (no)

Ask: Is 30% strictly greater than the compound's reported percent AR protein degradation at a fixed concentration at 0.1 µM? compound: COc1cc(O[C@H]2CC[C@H](NC(=O)c3ccc(N4CCC5(CC4)CC(N4CCC6(CC4)COc4cc7c(cc46)n(C)c(=O)n7C4CCC(=O)NC4=O)C5)nn3)CC2)ccc1C#N (stereo partly shown) [A-P-11]
Result: 0 (no)
